System: NCI-H460 lung
Test: NCI-60 one-dose screen, 48 h (100 = growth as untreated, 0 = no growth, -100 = all killed)
Settings: 10 µM unless noted
Experimental: Growth inhibition of the NCI-H460 human Non-Small Cell Lung tumor cell line is measured as a screen for anti-cancer activity. Cells are grown in 96 well plates and exposed to the test compound for 48 hours. Compounds are tested at a single concentration, which is 10^-5 M for most compounds. The reported endpoint is percent growth (GI% or GIPRCNT), where numbers from 0 - 100% represent growth inhibition, and numbers from -100% - 0 represent cell death. […]
The panel holds about 83,000 compounds, 20% with a hit somewhere; the sample as a whole holds those more often.
Form field: growth (one value per entry).
property: growth (%)

> print(dat)
                               given.smiles  target.system   val
1  CSc1nc(NCCN2CCOCC2)c(C#N)c(-c2cccc([N+](=O)[O-])c2)n1  NCI-H460 lung   100
2  Cc1cc(Nc2ccc(C)c(Cl)c2)n2nc(C(F)(F)F)nc2n1  NCI-H460 lung    69
3  O=S(=O)(Nc1ccc(OC(F)F)cc1)c1ccc(-c2cnc(C3CC3)o2)cc1  NCI-H460 lung  79.1
4  COc1ccc(-c2cc(C(=O)N=Nc3c(O)[nH]c4ccc(Br)cc34)no2)cc1  NCI-H460 lung   101
5        COc1ccc(CN2c3ccccc3Oc3ccccc32)cc1O  NCI-H460 lung  13.3
6            CCCOc1ccc2nc(NC(=O)OC)[nH]c2c1  NCI-H460 lung  3.52

---

System: SF-539 CNS
Test: NCI-60 one-dose screen, 48 h
Details: 10 µM unless noted
Compounds without any hit were thinned out: in the full panel of roughly 83,000, 20% have a hit. The source made the active and inactive calls. The calls were made as follows: active = growth percent below 10; inactive = the rest.
Labels: t = active, f = inactive

> print(dat)
                                    compound  cat
 1  O=C(Cc1ccc(/C=C/C(=O)c2ncc[nH]2)cc1)Nc1ccccc1    t
 2  CCOC(=O)c1c(C)oc2ncnc(N3CCN(C(=S)Nc4ccccc4)CC3)c12    f
 3  Cc1ccc(NC(=O)C2CCC(CN3CCN(C)CC3)CC2)cc1Nc1nccc(-c2cccnc2)n1 (stereo not given)    f
 4  C=C1C(=O)O[C@H]2[C@H]1CC/C(COC(=O)NCc1ccc(OC)c(OC)c1)=C\CC[C@@]1(C)O[C@@H]21    f
 5  CN(C)[C@@H]1C(=O)C(C(=O)NCc2nc3[nH]cnc(=S)c3[nH]2)=C(O)[C@@]2(O)C(=O)C3=C(O)c4c(O)cccc4[C@@](C)(O)[C@H]3C[C@@H]12    f
 6  CCOc1nc(-c2ccccc2)cc2c(O)c(C(=O)O)[nH]c(=O)c12    f
 7  C#CCOc1ccc2ncnc(N3CCC(NC(=O)CCl)CC3)c2c1    f
 8  O=C(CCCCC(=O)N/N=C\c1ccccc1O)N/N=C\c1ccccc1O    f
 9  CC(C)(CCCN=C(N)Nc1ccc(Cl)cc1)c1ccc(F)cc1    f
10   C#CCOc1ccc2ncnc(N3CCN(C(=O)CCl)CC3)c2c1    f
11  COc1ccc(C(=O)COc2cccc(/C=C3\CSc4ccccc4C3=O)c2)cc1    f
12  CC(=O)c1cc(C(=O)c2ccc3c(c2)Sc2ccccc2N3)n2ccccc12    t
13  CCOc1ccc(-n2nc(C(=O)Nc3ccccc3)nc2-c2cc(OC)c(OC)c(OC)c2)cc1    f
14  O=C1c2cc3c(cc2-c2c1c1ccc(F)cc1c(=O)n2C[C@H](O)[C@@H](O)[C@H](O)CO)OCO3    t
15  COc1cc2c(cc1O)CC[C@@H]1[C@@H]2CC[C@]2(C)[C@@H](NCCN(C)C)CC[C@@H]12    t
16  CC1=C(O)C(=O)C(C(C#N)(C#N)C(C#N)C#N)C1 (stereo not given)    f
17  CC(C)n1c(/C=C/[C@@H](O)C[C@@H](O)CC(=O)O)c(-c2ccc(F)cc2)c2ccccc21    f
18  COc1cc(-c2nn(-c3ccc(C(=O)O)cc3)cc2C(=O)O)ccc1O    f
19           CC1CCNC(C)C1 (stereo not given)    f
20  COc1ccc(/C=C/c2nc(-c3n[nH]c(=O)n3-c3ccccc3)c3ccccc3n2)cc1    f

All values here come from PubChem BioAssay (NCI).
